conditions: in water, 293.15 K
readout-label: solubility (mole fraction)

a = O=C1c2cccc(O)c2C(=O)c2c(O)cc(CO)cc21
b = Cc1cc(O)c2c(c1)C(=O)c1cc(O)cc(O)c1C2=O
Exam item: Select one: a or b . Criterion: greater recorded solubility (mole fraction). // respond with label for picked entry
Marked response: a

* * *

details: in ethanol, 318.15 K
readout-label: solubility (mole fraction)

P = Cc1cc(O)c2c(c1)C(=O)c1cc(O)cc(O)c1C2=O
Q = O=C1c2cccc(O)c2C(=O)c2c(O)cc(CO)cc21
Exam item: I'm curious whether P or Q has the smaller solubility (mole fraction) number. Which is it? // respond with label for picked entry
Marked response: Q

Reference source: BigSolDB 2.1
